Biological target: pooled human IgG (human IgG1, 2, 3 and 4)
Endpoint: Enzyme Activity Endpoint Assay (purified): IgG (ng/µL)
A number alone suffices; assume ng/µL.

Tell me the measured Enzyme Activity Endpoint Assay (purified): IgG of PRT-619 (protein) MQITTVWTKGVTPLTPEQFRYNNEDVIHAPYLAHQGWYDITKAFDGKDNLLCGAATAGNMLHWWFDQNKTEIEAYLSKHPEKQKIIFNNQELFDLKAAIDTKDSQTNSQLFNYFRDKAFPNLSARQLGVMPDLVLDMFINGYYLNVFKTQSTDVNRPYQDKDKRGGIFDAVFTRGDQTTLLTARHDLKNGGLEDISTIIKQELKNGRALALSHTYANVSISHVINLWGADFNAEGNLSAIYVTDSDANASIGMKKYFVGINAHGHVAISAKKIEGENIGAQVLGLFTLSSGKDIWQKLSLEHHHHHH , please.
102
